# System: UACC-62 melanoma
# testDetails: NCI tumour cell line growth inhibition, 48 h; in the data active means GI50 below about 0.43 µM; inactive means the rest
Your reply should match one of these outcome classes. True (active), False (inactive)

Q: Entry `Cc1nc(Nc2ccc(F)c(Cl)c2)sc1C(=O)O` : call = ?
A: False

Q: Field: outcome | Entry: `COc1ccc(C(=O)c2cc(OC)c(OC)c(OC)c2)cc1O`
A: False

Q: Please indicate how the test categorized `O=C(Nc1ccncc1)C(=O)c1cn(S(=O)(=O)c2ccccc2F)c2ccccc12` .
A: False

Q: Write down the call the test reported for this compound. Item: `CCOc1cc2ncc(C#N)c(Nc3ccc(F)c(Cl)c3)c2cc1NC(=O)/C=C/CN(C)C`
A: False

Q: Name the outcome recorded for `COc1cccc(/C=C/C(=O)c2cc3c(N)c(C(=O)Nc4cccc(Cl)c4C)sc3nc2C)c1` in the assay.
A: False

Q: What is the recorded call for this compound in the test? `Cn1c2ccccc2c2nnc(N/N=C/c3ccccn3)nc21`
A: True

Q: Hello, I am checking results. What call was entered for `Cc1nn2c(/C=C3/C(=O)Nc4ccc(Cl)cc43)c(-c3ccccc3)nc2s1` ?
A: False

Q: Lab log entry: `CO/N=C1/NC(=O)/C(=C/c2ccc3ncccc3c2)S1` — outcome as called in the assay?
A: False

---

# Test system: IGROV1 ovarian
# testDetails: NCI tumour cell line growth inhibition, 48 h
*1 amine or outer side, *2 acyl side, *3 side chain or, on linkers, in order; H or OH if unused. Where a SMILES comes first, the peptide text is derived from it. Bridges are numbered along the chain shown (N, C = ends). [ ]: non-standard residue; d: D form. The star is where a group is joined. Phe(3-Me) = Cc1cccc(C[C@H](N)C(=O)O)c1; NH(4-Cl-2-F-phenyl) = Fc1cc(Cl)ccc1N*; Pro(4R-Me) = C[C@H]1CN[C@H](C(=O)O)C1; Hyp = O=C(O)[C@@H]1C[C@@H](O)CN1; aThr = C[C@H](O)[C@H](N)C(=O)O; Pip = O=C(O)[C@@H]1CCCCN1; CO = O=C([*:1])[*:2]
Record form. Attribute: TGI. Fill in for each entry.

Q: For Cn1c2c(c3ccccc31)CC(=O)N1CCCCC1C21OCCO1 (stereo not drawn) , what is its reported TGI?
A: > 100 µM

Q: Consider the compound shown here: `O=C(Nc1ccncc1)C(=O)c1cn(S(=O)(=O)c2ccccc2F)c2ccccc12` What is its recorded TGI?
A: > 100 µM

Q: Which TGI value is on record for `Cc1ccc2c(=O)[nH]sc2c1` ?
A: 35.3 µM

Q: Which TGI value is on record for CC1OC(OC2C(Oc3cc(O)c4c(=O)cc(-c5ccc(O)cc5)oc4c3)OC(CO)C(O)C2O)C(O)C(O)C1O (stereo not drawn) ?
A: > 100 µM

Q: Field request: TGI | item: Cc1cccc(C[C@H](NC(=O)Nc2ccc(Cl)cc2F)C(=O)N[C@@H]2C(=O)N3C[C@H](O)C[C@H]3C(=O)N3CCCC[C@H]3C(=O)N[C@@H](C)C(=O)N3C[C@H](C)C[C@H]3C(=O)O[C@H]2C)c1 ({NH(4-Cl-2-F-phenyl)-CO}-[Phe(3-Me)][aThr][Hyp][Pip]A[Pro(4R-Me)]; ester 2-C)
A: 2.98 µM

Q: Field request: TGI | item: `CCOC(=O)C(Cc1c[nH]c2cc([N+](=O)[O-])ccc12)(NC(C)=O)C(=O)OCC`
A: > 1000 µM

Q: Look up TGI: `CN(C)CCNC(=O)c1cc([N+](=O)[O-])ccn1`
A: > 100 µM

Q: Item under review: `COc1cc2c(OC)c(c1)CCCC1=CC(=O)C=C(CCC2)C1=O` . Reported TGI?
A: > 100 µM

Q: I'd like to know its TGI. The compound in question is `Cc1cccc(C)c1NC(=O)C(=O)CC(=O)CO`
A: > 100 µM

Q: Given the compound `CCOC(=O)[C@@H](C)C[C@H](Cc1ccccc1)NC(=O)c1csc([C@@H](C[C@H](C(C)C)N(C)C(=O)[C@H](CCC(C)C)NC(=O)[C@H]2CCCCN2C)OC(C)=O)n1` , what is its reported TGI?
A: 29.8 µM

Q: Look up TGI: `COc1cc(-c2cn(-c3ccc(Cl)cc3)c(=O)[nH]2)cc(OC)c1OC`
A: > 100 µM

Q: Could you tell me which TGI is on file for `O=C(COC(=O)c1ccccc1)c1ccc(Br)cc1` ?
A: 3.59 µM

Q: Would you kindly share the measured TGI for CC(=O)O[C@@H]1CC(C)C2CC2C2=C(C(O)OC2O)[C@@H]1C(C)CCC=C(C)C (stereo partly drawn) ?
A: 51.1 µM

Q: Dear colleague, I am looking for the recorded TGI of the following compound: `COc1ccc(CN=C2Nc3ccncc3S(=O)(=O)N2c2ccccc2)cc1`
A: > 100 µM

Q: Any idea what its TGI is? The compound is `O=C(O)c1ccc(NS(=O)(=O)c2cccc3cccnc23)cc1`
A: > 100 µM

Q: Given `COC[C@H]1OC(=O)c2coc3c2[C@@]1(C)C1=C(C3=O)[C@@H]2CCC(=O)[C@@]2(C)C[C@H]1OC(C)=O` , state its recorded TGI.
A: 19.3 µM

Q: Look up TGI for this compound: `Cc1nc(Nc2ccc(F)c(Cl)c2)sc1C(=O)O`
A: 5.03 µM

Q: Which TGI value is on record for `C/C(=C1/N=C(c2cc([N+](=O)[O-])ccc2Cl)N(C2=CC=C(Cl)CC2)C1=O)c1cc2ccccc2oc1=O` ?
A: > 100 µM

Reference source: PubChem BioAssay (NCI)
